Source of measurements: paper PMC12248599

Test system: Caco-2 cell monolayer
assayInfo: Caco-2 monolayer transport (bioavailability) study, AB and BA directions
Format: in vitro ADME, Homo sapiens
studyConditions: AB experiment, donor side, S2 (22 mg/mL GSE), 75 min
Marks after values point to notes of the source that are not given here.
Kindly state Apical Side 75 min for each of the entries shown.

Look up Apical Side 75 min for this compound: O=c1c(OC2O[C@H](CO)[C@H](O)[C@H](O)[C@H]2O)c(-c2ccc(O)cc2)oc2cc(O)cc(O)c12 (stereo partly drawn) [K3Gal, kaempferol-3-galactoside]
1.09 ± 0.02 ^b mg/L

Look up Apical Side 75 min for this compound: O=c1c(O[C@@H]2O[C@H](CO)[C@@H](O)[C@H](O)[C@H]2O)c(-c2ccc(O)cc2)oc2cc(O)cc(O)c12 [K3G, kaempferol-3-glucoside]
11.8 ± 0.3 ^b mg/L

Look up Apical Side 75 min for this compound: O=C(O)c1cc(O)c(O)c(O)c1
5.0 ± 0.3 ^b mg/L

* * *

System: Caco-2 cell monolayer
assayInfo: Caco-2 monolayer transport (bioavailability) study, AB and BA directions
Assay type: in vitro ADME, Homo sapiens
studyConditions: AB experiment, S2 (22 mg/mL GSE), 0 to 180 min
readoutType: reduction in concentration on the apical (donor) side (%)
Give your result in % as a bare value.

Look up reduction in concentration on the apical (donor) side for this molecule: O=C(/C=C/c1ccc(O)c(O)c1)O[C@@H](C(=O)O)[C@@H](O)C(=O)O [CA, caftaric acid]
44.1

Look up reduction in concentration on the apical (donor) side for this molecule: COc1cc(-c2[o+]c3cc(O)cc(O)c3cc2O[C@@H]2O[C@H](CO)[C@@H](O)[C@H](O)[C@H]2O)cc(OC)c1O [M3G, malvidin-3-O-glucoside]
58

Look up reduction in concentration on the apical (donor) side for this molecule: O=c1c(O[C@@H]2O[C@H](CO)[C@@H](O)[C@H](O)[C@H]2O)c(-c2ccc(O)cc2)oc2cc(O)cc(O)c12 [K3G, kaempferol-3-glucoside]
28.7

Look up reduction in concentration on the apical (donor) side for this molecule: COc1cc(C(=O)O)cc(OC)c1O [SA, syringic acid]
55

* * *

Tested on: Caco-2 cell monolayer
assayInfo: Caco-2 monolayer transport (bioavailability) study, AB and BA directions
Type: in vitro ADME, Homo sapiens
studyConditions: BA experiment, donor side, S1 (15 mg/mL GSE), 90 min
Marks after values point to notes of the source that are not given here.
readoutType: Basolateral Side 90 min

Please tell me: Basolateral Side 90 min of O=C(O)c1cc(O)c(O)c(O)c1 , system Caco-2 cell monolayer?
6.2 ± 0.3 ^c mg/L

Please tell me: Basolateral Side 90 min of O=C(/C=C/c1ccc(O)c(O)c1)O[C@@H](C(=O)O)[C@@H](O)C(=O)O , system Caco-2 cell monolayer?
0.80 ± 0.02 ^c mg/L

Please tell me: Basolateral Side 90 min of COc1cc(-c2[o+]c3cc(O)cc(O)c3cc2O[C@@H]2O[C@H](CO)[C@@H](O)[C@H](O)[C@H]2O)cc(OC)c1O [M3G, malvidin-3-O-glucoside] , system Caco-2 cell monolayer?
9.1 ± 0.6 ^c mg/L

Please tell me: Basolateral Side 90 min of O=c1c(O[C@@H]2O[C@H](CO)[C@@H](O)[C@H](O)[C@H]2O)c(-c2ccc(O)c(O)c2)oc2cc(O)cc(O)c12 [Q3G, quercetin-3-glucoside] , system Caco-2 cell monolayer?
0.21 ± 0.02 ^c mg/L

Please tell me: Basolateral Side 90 min of O=c1c(O[C@@H]2O[C@H](CO)[C@@H](O)[C@H](O)[C@H]2O)c(-c2ccc(O)cc2)oc2cc(O)cc(O)c12 [K3G, kaempferol-3-glucoside] , system Caco-2 cell monolayer?
6.9 ± 0.2 ^c mg/L

Please tell me: Basolateral Side 90 min of COc1cc(C(=O)O)cc(OC)c1O , system Caco-2 cell monolayer?
0.63 ± 0.07 ^b,c mg/L

Please tell me: Basolateral Side 90 min of O=c1c(OC2O[C@H](CO)[C@H](O)[C@H](O)[C@H]2O)c(-c2ccc(O)cc2)oc2cc(O)cc(O)c12 (stereo partly drawn) [K3Gal, kaempferol-3-galactoside] , system Caco-2 cell monolayer?
0.13 ± 0.01 ^c mg/L

Please tell me: Basolateral Side 90 min of OC[C@H]1O[C@@H](Oc2cc3c(O)cc(O)cc3[o+]c2-c2cc(O)c(O)c(O)c2)[C@H](O)[C@@H](O)[C@@H]1O [D3G, delphinidin-3-O-glucoside] , system Caco-2 cell monolayer?
2.5 ± 0.2 ^b,c mg/L

Please tell me: Basolateral Side 90 min of COc1cc(-c2[o+]c3cc(O)cc(O)c3cc2O[C@@H]2O[C@H](CO)[C@@H](O)[C@H](O)[C@H]2O)cc(O)c1O [Pet3G, petunidin-3-O-glucoside] , system Caco-2 cell monolayer?
3.8 ± 0.1 ^b,c mg/L
